target: human cloned dopamine receptor D3 (Homo sapiens, UniProt P35462)
Sequence (P35462 whole entry): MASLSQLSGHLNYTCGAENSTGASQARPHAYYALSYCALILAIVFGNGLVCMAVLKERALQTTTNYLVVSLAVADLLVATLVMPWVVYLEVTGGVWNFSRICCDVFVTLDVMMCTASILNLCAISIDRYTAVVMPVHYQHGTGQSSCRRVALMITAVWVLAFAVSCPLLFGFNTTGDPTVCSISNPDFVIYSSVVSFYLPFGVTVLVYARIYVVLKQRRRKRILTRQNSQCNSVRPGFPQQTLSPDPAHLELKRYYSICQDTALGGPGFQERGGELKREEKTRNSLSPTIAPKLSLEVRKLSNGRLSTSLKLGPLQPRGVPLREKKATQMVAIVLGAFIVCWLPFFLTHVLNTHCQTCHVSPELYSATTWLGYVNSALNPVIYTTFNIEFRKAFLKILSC

{"compound": "CCCN[C@H]1CCc2nc(N)sc2C1 (single isomer, unassigned) [R(+) pramipexole]", "IC50 / µM": 12}

* * *

target: human cloned dopamine receptor D5 (Homo sapiens, UniProt P21918); assay: biochemical
Sequence (P21918 whole entry): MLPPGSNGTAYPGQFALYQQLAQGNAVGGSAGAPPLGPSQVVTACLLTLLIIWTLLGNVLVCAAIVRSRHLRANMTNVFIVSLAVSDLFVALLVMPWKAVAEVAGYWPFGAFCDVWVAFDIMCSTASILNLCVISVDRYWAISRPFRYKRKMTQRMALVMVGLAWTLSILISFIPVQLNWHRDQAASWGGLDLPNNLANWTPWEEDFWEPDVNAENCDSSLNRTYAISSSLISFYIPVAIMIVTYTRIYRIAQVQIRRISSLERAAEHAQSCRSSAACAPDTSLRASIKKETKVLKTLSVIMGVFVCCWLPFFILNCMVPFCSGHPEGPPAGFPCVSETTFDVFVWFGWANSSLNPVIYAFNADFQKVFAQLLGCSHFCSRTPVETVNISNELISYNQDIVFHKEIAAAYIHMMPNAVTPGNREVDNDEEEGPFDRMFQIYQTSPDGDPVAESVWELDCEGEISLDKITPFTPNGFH

{"compound": "CCCN[C@H]1CCc2nc(N)sc2C1 (single isomer, unassigned) [R(+) pramipexole]", "target under test": "human cloned dopamine receptor D5 (Homo sapiens, UniProt P21918)", "Ki": "> 100 µM"}
